Target: HNF-1A DD-DBD (HNF-1A 1-279) (UniProt P20823 1-279)
Sequence (P20823 1-279): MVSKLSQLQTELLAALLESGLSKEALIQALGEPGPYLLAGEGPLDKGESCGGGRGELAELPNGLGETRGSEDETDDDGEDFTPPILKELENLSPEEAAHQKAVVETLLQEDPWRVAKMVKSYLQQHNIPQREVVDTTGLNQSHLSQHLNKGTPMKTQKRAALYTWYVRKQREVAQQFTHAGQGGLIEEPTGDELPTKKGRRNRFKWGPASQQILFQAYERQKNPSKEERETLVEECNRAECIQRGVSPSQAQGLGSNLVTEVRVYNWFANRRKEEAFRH
Experiment: ITC; increase vs WT not significant; ITC: 20 mM HEPES pH 7.5, 200 mM NaCl, 1 mM TCEP, 30 C, 250 uM dsDNA into 50 uM protein; BLI: streptavidin sensor with BiotinTEG dsDNA, buffer not in material
Conditions: protein: recombinant; tags: His6 removed by TEV; chain copies: 2; label: 5' BiotinTEG on forward strand (BLI only); blunt
readout_kind: Kd (µM)
Answer format: numeric, µM implied, no suffix.

Quick note, Kd for P2 -181G>A (dsDNA) DNA 1: ACTGATTACTCTTTAACGTAT DNA 2: ATACGTTAAAGAGTAATCAGT landed at 0.6
